target_or_system: T1, mouse PCSK9 (mouse, UniProt Q80W65 35-694, limits assumed)
T1 construct: also called mPCSK9; PCSK9 mouse
T1 sequence (Q80W65 35-694 limits assumed): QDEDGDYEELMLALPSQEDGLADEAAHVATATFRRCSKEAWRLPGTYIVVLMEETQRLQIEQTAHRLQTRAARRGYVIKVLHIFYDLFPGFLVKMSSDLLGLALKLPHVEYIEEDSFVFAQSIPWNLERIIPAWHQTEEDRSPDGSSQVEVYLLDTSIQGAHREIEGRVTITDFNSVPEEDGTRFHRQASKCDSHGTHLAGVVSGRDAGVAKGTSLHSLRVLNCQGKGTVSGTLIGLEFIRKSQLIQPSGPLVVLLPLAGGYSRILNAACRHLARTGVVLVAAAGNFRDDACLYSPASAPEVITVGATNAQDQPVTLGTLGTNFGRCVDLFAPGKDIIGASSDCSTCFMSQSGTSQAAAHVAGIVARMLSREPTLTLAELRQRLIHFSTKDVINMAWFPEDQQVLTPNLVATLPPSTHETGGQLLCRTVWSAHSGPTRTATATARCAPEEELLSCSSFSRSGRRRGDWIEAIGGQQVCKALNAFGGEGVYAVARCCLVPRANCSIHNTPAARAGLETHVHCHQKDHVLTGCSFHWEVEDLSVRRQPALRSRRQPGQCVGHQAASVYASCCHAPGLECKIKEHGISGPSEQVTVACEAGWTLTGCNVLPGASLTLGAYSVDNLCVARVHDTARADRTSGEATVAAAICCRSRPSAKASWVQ
assay_protocol: ProteOn SPR, captured antibody, pH 7.6;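 further: antibodies captured via anti-human Fc on a GLC sensor chip, PCSK9 binding sensorgrams fitted to a 1:1 Langmuir model giving on and off rates, with KD derived from them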
readout_type: koff (s⁻¹)
The answer is to be given in s⁻¹; state only the numeric part.

INPUT: Identify measured koff associated with CL-148219 (antibody, V domains shown, NLT motif in heavy chain framework 3 confirmed N-glycosylated by mass spectrometry, Human antibody, captured through anti-human Fc in the SPR assay) VH: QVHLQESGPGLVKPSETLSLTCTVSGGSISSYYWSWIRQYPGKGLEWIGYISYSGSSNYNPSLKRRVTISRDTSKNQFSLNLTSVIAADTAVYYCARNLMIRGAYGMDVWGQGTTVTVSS VL: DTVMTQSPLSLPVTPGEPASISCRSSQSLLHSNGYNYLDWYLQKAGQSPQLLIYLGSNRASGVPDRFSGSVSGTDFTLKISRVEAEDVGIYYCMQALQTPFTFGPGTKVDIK
OUTPUT: 0.000411

INPUT: Input CL-148489 (antibody, V domains shown, Human antibody with a kappa light chain) VH: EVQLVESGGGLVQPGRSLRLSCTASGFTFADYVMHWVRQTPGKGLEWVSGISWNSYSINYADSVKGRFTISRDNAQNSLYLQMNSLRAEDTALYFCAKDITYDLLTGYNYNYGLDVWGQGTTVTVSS VL: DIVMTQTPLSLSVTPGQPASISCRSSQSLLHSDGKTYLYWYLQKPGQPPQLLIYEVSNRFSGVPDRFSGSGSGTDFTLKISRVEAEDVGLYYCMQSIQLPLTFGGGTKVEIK , output reported koff.
OUTPUT: 0.00192

INPUT: Give recorded koff. CL-148219 QLT mutant (antibody, V domains shown) VH: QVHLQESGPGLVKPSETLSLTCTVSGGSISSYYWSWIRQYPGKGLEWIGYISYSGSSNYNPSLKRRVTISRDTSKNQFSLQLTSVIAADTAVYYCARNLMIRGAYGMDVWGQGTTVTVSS VL: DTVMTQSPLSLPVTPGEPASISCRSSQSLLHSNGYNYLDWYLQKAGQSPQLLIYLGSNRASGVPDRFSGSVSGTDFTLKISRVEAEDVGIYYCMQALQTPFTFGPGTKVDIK
OUTPUT: 0.000352
